Where these numbers come from: patent US6063926A

- target under test: UniProt:P21452
- Sequence (P21452 1-398): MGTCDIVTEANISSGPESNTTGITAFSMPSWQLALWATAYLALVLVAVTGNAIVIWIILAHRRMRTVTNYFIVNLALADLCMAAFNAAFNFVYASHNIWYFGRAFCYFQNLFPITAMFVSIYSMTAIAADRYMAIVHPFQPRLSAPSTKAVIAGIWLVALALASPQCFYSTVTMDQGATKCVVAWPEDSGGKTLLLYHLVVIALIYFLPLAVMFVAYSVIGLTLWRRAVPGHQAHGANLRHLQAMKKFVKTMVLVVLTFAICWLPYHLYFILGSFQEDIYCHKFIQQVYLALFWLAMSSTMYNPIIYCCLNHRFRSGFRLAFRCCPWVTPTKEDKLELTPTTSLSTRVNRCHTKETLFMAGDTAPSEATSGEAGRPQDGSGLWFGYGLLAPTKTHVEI
- procedure summary: neurokinin receptor binding assay, NK2 (Ki)
- cond: read-out: Ki (NK2)
measure name: log10 Ki (log10 of the value in nM)
Recorded Ki (log10, nM)

Cc1cc(C)cc(C(=O)N(C)CC(=NOCC(N)=NO)C(CCN2CCC(N3CCCC(CC(=O)N(C)C)C3=O)CC2)c2ccc(Cl)c(Cl)c2)c1 (stereo not shown) [Example 19C]: -0.70
CON=C(CN(C)C(=O)c1cc(C)cc(Cl)c1)C(CCN1CCC(N2CCCC(CC(=O)N(C)C)C2=O)CC1)c1ccc(Cl)c(Cl)c1 (stereo not shown): 0.08
Cc1cc(C)cc(C(=O)N(C)CC(=NOCC#N)C(CCN2CCC(N3CCCCC3=O)CC2)c2ccc(Cl)c(Cl)c2)c1 (stereo not shown) [Example 18D]: -0.40
CON=C(CN(C)C(=O)c1cc(Cl)cc(Cl)c1)[C@H](CCN1CCC(N2CCC[C@H](CC(=O)OC)C2=O)CC1)c1ccc(Cl)c(Cl)c1 [Example 13F]: -0.52
CON=C(CN(C)C(=O)c1cc(Cl)cc(Cl)c1)C(CCN1CCC(N2CCCC(CC(=O)N3CCOCC3)C2=O)CC1)c1ccc(Cl)c(Cl)c1 (stereo not shown) [Example 12K]: -0.30

Reported log10 Ki for UniProt:P21452, given CON=C(N)CON=C(CN(C)C(=O)c1cc(C)cc(C)c1)C(CCN1CCC(N2CCCCC2=O)CC1)c1ccc(Cl)c(Cl)c1 (stereo not shown) [Example 18M] ?
-0.40

Would you kindly repeat that for CN(CC(=NO)C(CCN1CCC(N2CCCC(CC(N)=O)C2=O)CC1)c1ccc(Cl)c(Cl)c1)C(=O)c1cc(Cl)cc(Cl)c1 (stereo not shown) [Example 16A] ?
-0.15

Let us now turn to CON=C(CN(C)C(=O)c1cc(Cl)cc(Cl)c1)[C@H](CCN1CCC(N2CCC[C@H](CC(N)=O)C2=O)CC1)c1ccc(Cl)c(Cl)c1 [Example 13C]
-0.70

What about CNC(=O)CC1CCCN(C2CCN(CCC(C(CN(C)C(=O)c3cc(Cl)cc(Cl)c3)=NOCC(=O)NCS(=O)(=O)O)c3ccc(Cl)c(Cl)c3)CC2)C1=O (stereo not shown) [Example 15J] ?
0.63

What do you have for CON=C(CN(C)C(=O)c1cc(C)nc(Cl)c1)C(CCN1CCC(O)(c2ccccc2)CC1)c1ccc(Cl)c(Cl)c1 (stereo not shown) [Example 30A] ?
0.28

# iterate: CN(C)C(=O)CC1CCCN(C2CCN(CCC(C(CN(C)C(=O)c3cc(Cl)cc(Cl)c3)=NO)c3ccc(Cl)c(Cl)c3)CC2)C1=O (stereo not shown) [Example 14B]
-0.10

CON=C(CN(C)C(=O)c1cc(C)cc(Cl)c1)C(CCN1CCC(N2CCCCC2=O)CC1)c1ccc(Cl)c(Cl)c1 (stereo not shown) ?
0.11

Moving on to CNC(=O)CON=C(CN(C)C(=O)c1cc(Cl)cc(Cl)c1)C(CCN1CCC(N2CCCC(CC(=O)NC)C2=O)CC1)c1ccc(Cl)c(Cl)c1 (stereo not shown) [Example 15E]
0.00

----------
- target under test: NK1 receptor (Homo sapiens)
- procedure summary: neurokinin receptor binding assay, NK1 (Ki)
- cond: compound of Example 11, amide disclosed in U.S. Pat. No. 5,696,267; read-out: Ki for the NK1 receptor (unit inferred)
- Text: The in vitro and in vivo activity of the compounds of formula I can be determined by various procedures known in the art, such as a test for their ability to inhibit the activity of the NK1 agonist Substance P, an isolated hamster trachea NK2 assay, a test of the effect of NK1 antagonists on Substance P-induced airway microvascular leakage, measurement of NK2 activity in vivo in guinea pigs, measurement of bronchoconstriction due to NKA, and neurokinin receptor binding assay(s). […]
measure name: Ki (nM)
Express it in nM; write the number only.

# lookup: Ki of CO/N=C(\CN(C)C(=O)c1cc(C(F)(F)F)cc(C(F)(F)F)c1)C(CCN1CCC(O)(c2ccccc2)CC1)c1ccc(Cl)c(Cl)c1 (stereo not shown)
3.6

----------
Each entry below lists one item and its recorded pKi value.
- target under test: NK2 receptor (Homo sapiens, UniProt P21452)
- procedure summary: neurokinin receptor binding assay, NK2 (Ki)
- cond: read-out: Ki (NK2)
Lab note — pKi values are minus log10 of concentrations in M.

Would you please look over these solved cases?
CNC(=O)CC1CCCN(C2CCN(CCC(C(CN(C)C(=O)c3cc(Cl)cc(Cl)c3)=NOCC(=O)NCC#N)c3ccc(Cl)c(Cl)c3)CC2)C1=O (centres unmarked) [Example 15I]: 9.00
CNC(=O)CC1CCCN(C2CCN(CCC(C(CN(C)C(=O)c3cc(Cl)cc(Cl)c3)=NOCC(=O)Nc3nncs3)c3ccc(Cl)c(Cl)c3)CC2)C1=O (centres unmarked) [Example 15G]: 8.89

# input molecule: CNC(=O)CC1CCCN(C2CCN(CCC(C(CN(C)C(=O)c3cc(Cl)cc(Cl)c3)=NO)c3ccc(Cl)c(Cl)c3)CC2)C1=O (centres unmarked) [Example 15A] ; wanted: its pKi
9.15

Try this molecule too: COc1cc(C(=O)N(C)CC(=NOCC(N)=NO)C(CCN2CCC(O)(c3ccccc3)CC2)c2ccc(Cl)c(Cl)c2)cc(OC)c1OC (centres unmarked) [Example 23]
9.30

Record: CNC(=O)CC1CCCN(C2CCN(CCC(C(CN(C)C(=O)c3cc(Cl)cc(Cl)c3)=NOCC(N)=NOC)c3ccc(Cl)c(Cl)c3)CC2)C1=O (centres unmarked) [Example 15M]
9.52

Then this molecule: CON=C(N)CON=C(CN(C)C(=O)c1cc(OC)c(OC)c(OC)c1)C(CCN1CCC(O)(c2ccccc2)CC1)c1ccc(Cl)c(Cl)c1 (centres unmarked) [Example 37]
9.15

Same read-out for CON=C(CN(C)C(=O)c1cc(Cl)cc(Cl)c1)[C@H](CCN1CCC(N2CCC[C@H](CC(=O)O)C2=O)CC1)c1ccc(Cl)c(Cl)c1 [Example 13E] ?
9.22

Now try CCON=C(CN(C)C(=O)c1cc(Cl)cc(Cl)c1)C(CCN1CCC(N2CCCC(CC(=O)NC)C2=O)CC1)c1ccc(Cl)c(Cl)c1 (centres unmarked) [Example 15L] .
8.85

----------
- target under test: NK1 receptor (Homo sapiens, UniProt P25103)
- Sequence (P25103 whole entry): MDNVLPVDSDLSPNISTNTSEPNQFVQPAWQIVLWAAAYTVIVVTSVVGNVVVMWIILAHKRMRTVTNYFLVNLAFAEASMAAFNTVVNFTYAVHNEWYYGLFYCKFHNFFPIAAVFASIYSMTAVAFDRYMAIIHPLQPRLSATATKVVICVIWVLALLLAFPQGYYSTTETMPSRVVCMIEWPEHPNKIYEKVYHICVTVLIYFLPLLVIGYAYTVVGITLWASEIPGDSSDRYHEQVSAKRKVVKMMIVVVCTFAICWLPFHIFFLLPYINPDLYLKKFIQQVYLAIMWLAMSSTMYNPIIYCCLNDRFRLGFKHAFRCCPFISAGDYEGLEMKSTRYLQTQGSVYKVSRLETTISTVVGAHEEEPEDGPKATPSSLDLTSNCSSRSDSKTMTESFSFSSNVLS
- procedure summary: neurokinin receptor binding assay, NK1 (Ki)
- cond: read-out: Ki (NK1)
Examples of compounds with documented log10 of Ki follow.
Heads up: the numbers are on a log10 scale; they represent Ki in pM.

CON=C(CN(C)C(=O)c1cc(Cl)cc(Cl)c1)C(CCN1CCC(N2CCCC(CC(=O)N3CCCC3)C2=O)CC1)c1ccc(Cl)c(Cl)c1 (stereo not shown) [Example 12F]: 2.78
CNC(=O)C[C@H]1CCCN(C2CC[N+]([O-])(CC[C@@H](C(CN(C)C(=O)c3cc(Cl)cc(Cl)c3)=NOC)c3ccc(Cl)c(Cl)c3)CC2)C1=O (stereo partly shown) [Example 13H]: 3.41
Cc1cc(C(=O)N(C)CC(=NOCC(N)=NO)C(CCN2CCC(O)(c3ccccc3)CC2)c2ccc(Cl)c(Cl)c2)cc(Cl)n1 (stereo not shown): 2.60
CN(C)C(=O)CC1CCCN(C2CCN(CCC(C(CN(C)C(=O)c3cc(Cl)cc(Cl)c3)=NOCC(N)=NO)c3ccc(Cl)c(Cl)c3)CC2)C1=O (stereo not shown) [Example 14D]: 2.48
CCN(CC(=NOC)C(CCN1CCC(N2CCCC(CC(=O)NC)C2=O)CC1)c1ccc(Cl)c(Cl)c1)C(=O)c1cc(Cl)cc(Cl)c1 (stereo not shown) [Example 28B]: 2.90
COc1cc(C(=O)N(C)CC(=NOCC(N)=NO)C(CCN2CCC(N3CCCCC3=O)CC2)c2ccc(Cl)c(Cl)c2)cc(OC)c1C (stereo not shown) [Example 21B]: 3.78

Look up log10 of Ki: CCON=C(CN(C)C(=O)c1cc(Cl)cc(Cl)c1)C(CCN1CCC(N2CCCC(CC(=O)NC)C2=O)CC1)c1ccc(Cl)c(Cl)c1 (stereo not shown) [Example 15L]
3.00

Also CNC(=O)CC1CCCN(C2CCN(CCC(C(CNC(=O)c3cc(Cl)cc(Cl)c3)=NOC)c3ccc(Cl)c(Cl)c3)CC2)C1=O (stereo not shown) [Example 29B] , if possible.
3.72

And the next one, CON=C(CN(C)C(=O)c1cc(C)cc(Cl)c1)C(CCN1CCC(N2CCCCC2=O)CC1)c1ccc(Cl)c(Cl)c1 (stereo not shown) ?
3.00

// repeat for CCN(CC(=NOC)C(CCN1CCC(N2CCC[C@H](CC(N)=O)C2=O)CC1)c1ccc(Cl)c(Cl)c1)C(=O)c1cc(Cl)cc(Cl)c1 (stereo partly shown) [Example 28C] and report
2.60

How about this compound: CN(CC(=NOCC(N)=NO)C(CCN1CCC(N2CCCCC2=O)CC1)c1ccc(Cl)c(Cl)c1)C(=O)c1cc(Cl)cc(Cl)c1 (stereo not shown) [Example 17E]
2.85

Next entry: CON=C(CN(C)C(=O)c1cc(Cl)cc(Cl)c1)C(CCN1CCC(N2CCCC(CC(=O)N3CCC(O)CC3)C2=O)CC1)c1ccc(Cl)c(Cl)c1 (stereo not shown) [Example 12L]
2.70

Similarly, COc1cc(C(=O)N(C)CC(=NOCC(N)=NO)C(CCN2CCC(O)(c3ccccc3)CC2)c2ccc(Cl)c(Cl)c2)cc(OC)c1OC (stereo not shown) ?
2.90
